system name: UniProt P11712
Sequence (P11712 whole entry): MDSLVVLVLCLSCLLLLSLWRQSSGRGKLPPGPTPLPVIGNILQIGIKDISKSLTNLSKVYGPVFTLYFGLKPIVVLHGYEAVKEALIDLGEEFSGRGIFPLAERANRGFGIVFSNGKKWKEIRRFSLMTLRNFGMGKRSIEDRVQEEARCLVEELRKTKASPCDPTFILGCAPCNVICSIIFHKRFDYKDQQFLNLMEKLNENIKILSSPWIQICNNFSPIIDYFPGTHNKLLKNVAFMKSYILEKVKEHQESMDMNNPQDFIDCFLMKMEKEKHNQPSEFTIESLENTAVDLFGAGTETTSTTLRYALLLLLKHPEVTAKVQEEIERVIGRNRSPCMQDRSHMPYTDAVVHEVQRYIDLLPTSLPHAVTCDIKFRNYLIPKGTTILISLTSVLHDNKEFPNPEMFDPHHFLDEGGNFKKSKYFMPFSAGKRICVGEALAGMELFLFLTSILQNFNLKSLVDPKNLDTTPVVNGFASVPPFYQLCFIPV
assay comment: CYP2C9-catalyzed diclofenac 4′-hydroxylase inhibition in pooled human liver microsomes
condition parameters: IC50 With Pre-incubation, CYP2C9 diclofenac 4′-hydroxylase, 10 µM diclofenac, 30 min pre-incubation with microsomes and NADPH
experimental readout: IC50 (µM)
Write it as a number; the unit µM goes unstated.

Please look at this molecule and report its IC50: COc1cc([C@H]2OC[C@H]3[C@@H]2CO[C@@H]3c2ccc3c(c2)OCO3)cc(OC)c1OC [Aschantin]
14.1

###

system name: CYP2D6 (Homo sapiens, UniProt P10635)
Sequence (P10635 whole entry): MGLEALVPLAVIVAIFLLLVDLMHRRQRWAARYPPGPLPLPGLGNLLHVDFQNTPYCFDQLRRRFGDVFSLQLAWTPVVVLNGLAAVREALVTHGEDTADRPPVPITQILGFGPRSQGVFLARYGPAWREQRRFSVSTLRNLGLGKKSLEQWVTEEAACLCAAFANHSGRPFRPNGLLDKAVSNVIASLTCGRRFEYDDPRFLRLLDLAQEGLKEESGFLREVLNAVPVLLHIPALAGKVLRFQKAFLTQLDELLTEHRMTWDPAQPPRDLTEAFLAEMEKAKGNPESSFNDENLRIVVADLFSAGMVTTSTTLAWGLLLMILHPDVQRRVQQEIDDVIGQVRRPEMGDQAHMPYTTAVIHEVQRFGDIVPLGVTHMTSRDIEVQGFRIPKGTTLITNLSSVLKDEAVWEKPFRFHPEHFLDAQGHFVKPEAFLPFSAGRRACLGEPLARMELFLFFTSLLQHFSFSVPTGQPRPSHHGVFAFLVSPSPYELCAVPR
assay comment: CYP2D6-catalyzed bufuralol 1′-hydroxylase inhibition in pooled human liver microsomes
pIC50: −log10 of the molar value.
experimental readout: pIC50

Please look at this molecule and report its pIC50: COc1cc([C@H]2OC[C@H]3[C@@H]2CO[C@@H]3c2ccc3c(c2)OCO3)cc(OC)c1OC [Aschantin]
< 4.00

###

system name: UGT1A4 (Homo sapiens, UniProt P22310)
Sequence (P22310 29-534): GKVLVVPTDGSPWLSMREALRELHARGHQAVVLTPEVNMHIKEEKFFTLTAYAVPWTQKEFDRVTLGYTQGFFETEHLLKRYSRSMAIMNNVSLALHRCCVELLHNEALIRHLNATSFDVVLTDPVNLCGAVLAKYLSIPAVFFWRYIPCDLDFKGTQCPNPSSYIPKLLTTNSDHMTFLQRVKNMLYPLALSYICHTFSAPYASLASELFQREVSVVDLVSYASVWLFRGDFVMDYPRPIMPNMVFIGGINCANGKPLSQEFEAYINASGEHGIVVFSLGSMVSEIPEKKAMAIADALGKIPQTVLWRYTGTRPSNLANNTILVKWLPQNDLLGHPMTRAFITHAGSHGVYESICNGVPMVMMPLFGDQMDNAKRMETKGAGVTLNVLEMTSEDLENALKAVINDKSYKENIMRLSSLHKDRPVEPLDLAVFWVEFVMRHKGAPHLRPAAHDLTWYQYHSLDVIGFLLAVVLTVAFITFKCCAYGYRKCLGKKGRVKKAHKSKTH
pIC50: −log10 of the molar value.
experimental readout: pIC50

Please look at this compound and report its pIC50: COc1cc([C@H]2OC[C@H]3[C@@H]2CO[C@@H]3c2ccc3c(c2)OCO3)cc(OC)c1OC [Aschantin]
< 3.70

###

system name: CYP2A6 (Homo sapiens)
Sequence (P11509 1-494): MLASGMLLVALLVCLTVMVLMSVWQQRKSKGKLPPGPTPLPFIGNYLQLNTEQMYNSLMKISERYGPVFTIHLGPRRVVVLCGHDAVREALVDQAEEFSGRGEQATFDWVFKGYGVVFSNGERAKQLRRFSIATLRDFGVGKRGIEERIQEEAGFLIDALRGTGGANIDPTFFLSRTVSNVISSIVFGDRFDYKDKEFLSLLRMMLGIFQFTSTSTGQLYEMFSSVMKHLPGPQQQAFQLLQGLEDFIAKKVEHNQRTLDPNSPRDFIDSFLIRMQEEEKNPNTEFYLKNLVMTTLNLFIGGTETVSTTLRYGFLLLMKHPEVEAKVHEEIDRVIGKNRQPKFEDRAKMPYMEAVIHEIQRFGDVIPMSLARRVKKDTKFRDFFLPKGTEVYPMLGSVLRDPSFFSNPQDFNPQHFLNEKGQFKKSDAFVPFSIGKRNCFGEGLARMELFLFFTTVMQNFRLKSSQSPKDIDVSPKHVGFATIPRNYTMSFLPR
assay comment: CYP2A6-catalyzed coumarin 7-hydroxylase inhibition in pooled human liver microsomes
experimental readout: IC50

Give measured IC50 for COc1cc([C@H]2OC[C@H]3[C@@H]2CO[C@@H]3c2ccc3c(c2)OCO3)cc(OC)c1OC [Aschantin] (CYP2A6 (Homo sapiens)).
> 100 µM
